molecular target: HNE (human neutrophil elastase) (Homo sapiens, UniProt P08246); construct: purchased Calbiochem; assay: HNE inhibition assay (fluorogenic substrate cleavage); format: biochemical; conditions: restated in Table 5 beside docking geometry; read-out: IC50
Sequence (P08246 30-267): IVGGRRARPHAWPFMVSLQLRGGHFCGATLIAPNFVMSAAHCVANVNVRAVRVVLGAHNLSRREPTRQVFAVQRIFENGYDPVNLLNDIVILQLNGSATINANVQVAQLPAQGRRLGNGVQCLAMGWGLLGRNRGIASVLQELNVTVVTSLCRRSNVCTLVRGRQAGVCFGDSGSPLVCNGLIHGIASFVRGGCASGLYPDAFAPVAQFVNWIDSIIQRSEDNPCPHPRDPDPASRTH
recorded_endpoint: IC50 (nM)
Give a bare numeral; the unit nM is implied.

## Input // query IC50 value for entry `CCOC(=O)c1cn(C(=O)c2cccc(C)c2)c2ccc(NS(=O)(=O)c3ccc(OC(=O)C(C)(C)C)cc3)cc12`
## Output 5200

## Input Requested field: IC50. Item: `CCOC(=O)c1cn(S(=O)(=O)c2ccc(OC(=O)C(C)(C)C)cc2)c2ccccc12`
## Output 30

## Input # input compound: `CCOC(=O)c1nn(C)c2ccc(NS(=O)(=O)c3ccc(OC(=O)C(C)(C)C)cc3)cc12` ; wanted: its IC50
## Output 86

## Input Entry `CCOC(=O)c1nn(C(=O)c2cccc(C)c2)c2ccc(NS(=O)(=O)c3ccc(OC(=O)C(C)(C)C)cc3)cc12` has what IC50?
## Output 460
